Some compounds, each annotated with its measured mass density.
Conditions: 298.15 K; 101.33 kPa; Liquid; Pycnometric method
Observation Type: mass density (kg/m3)

Nc1ccccc1 :: 1017.3
CC#N :: 776.5
CCCCCCO :: 815.3
Cc1ccccc1C :: 875.9
O=[N+]([O-])c1ccccc1 :: 1198
C=CC#N :: 800.3
